assay.explanation: Apparent clearance in Wistar rat at 5 mg/kg, po measured up to 24 hrs post dose by HPLC-MS/MS analysis
Type: ADME, organism-based
reported.conditions: in vivo, read-out: CL(app) (converted)
test.readout: CL/F (mL/min/kg)
Report as a plain number; the unit mL/min/kg is understood.

Give a short answer stating reported CL/F for CC1CC[C@@H]2C(C)(C)[C@H](O)CC[C@@]2(C)[C@@H]1/C=C/c1ccc(-c2cccc(F)c2)cn1 (single isomer, unassigned) .
75

###

assay.explanation: AUC (0 to infinity) in Wistar rat plasma at 10 mg/kg, po administered as single dose administered as single dose at 3 hrs post dose by LC-MS/MS analysis
Type: ADME, organism-based
Design: dose 10 mg/kg, route oral, time infinity
test.readout: AUC(0-inf) (ng·h/mL)
Kindly answer with a numeric value in ng·h/mL, unit omitted.

Note down AUC(0-inf) recorded for `COC(=O)[C@]1(C)[C@H](O)CC[C@@]2(C)[C@H](/C=C/c3ccc(-c4cccc(F)c4)cn3)[C@@]3(CC[C@@H]21)CO3`
269

###

assay.explanation: MRT (0 to infinity) in Wistar rat at 5 mg/kg, po measured up to 24 hrs post dose by HPLC-MS/MS analysis
Type: ADME, organism-based
reported.conditions: in vivo
test.readout: MRT inf (h)
// units = h; emit number, no label

Return value of MRT inf for input CC1CC[C@@H]2C(C)(C)[C@H](O)CC[C@@]2(C)[C@@H]1/C=C/c1ccc(-c2cccc(F)c2)cn1 (single isomer, unassigned) , no commentary.
5.6

###

assay.explanation: Tmax in Wistar rat at 5 mg/kg, po measured up to 24 hrs post dose by HPLC-MS/MS analysis
Type: ADME, organism-based
reported.conditions: in vivo
test.readout: Tmax (h)
Reply with just the number (in h).

Quick one: give measured Tmax for CC1CC[C@@H]2C(C)(C)[C@H](O)CC[C@@]2(C)[C@@H]1/C=C/c1ccc(-c2cccc(F)c2)cn1 (single isomer, unassigned)
2.5

###

system.name: Proteinase-activated receptor 1 (Homo sapiens)
assay.explanation: Antagonist activity at human PAR1 expressed in HEK293 cells co-expressing Galpha15 assessed as inhibition of haTRAP-induced calcium mobilization preincubated for 15 mins followed by haTRAP addition by calcium-4 dye based FLIPR assay
pIC50: −log10 of the molar value.
Outcome label depends on pIC50 relative to 5: at/above gives YES, below gives NO.

Example entries and their recorded answers appear below.
In [3]: df
Out[3]:
                            chemical_string  class
0  C[C@]1(/C=C/c2ccc(-c3cccc(F)c3)cn2)[C@H]2CC[C@@H]3COC(=O)[C@H]3[C@]2(C)CC[C@@H]1O     NO
1  C[C@@]1(/C=C/c2ccc(-c3cccc(F)c3)cn2)[C@H](O)CC[C@@]2(C)[C@@H]3C(=O)OC[C@H]3CC[C@H]12     NO

Decide: pIC50 of `C[C@]1(CN)[C@H]2CC[C@@]3(CO3)[C@@H](/C=C/c3ccc(-c4cccc(F)c4)cn3)[C@]2(C)CC[C@H]1O` >= 5?
NO

// inclusive: pIC50 at least 5? input: `CCCC(=O)O[C@H]1CC[C@@]2(C)[C@@H]3C(=O)OC[C@H]3CC[C@@H]2[C@]1(C)/C=C/c1ccc(-c2cccc(F)c2)cn1`
NO

Can `CCOC(=O)N[C@@H]1CC[C@@H]2[C@@H](C1)C[C@H]1C(=O)O[C@H](C)[C@H]1[C@H]2/C=C/c1ccc(-c2cccc(F)c2)cn1` be said to have pIC50 at or above 5?
YES

Assess whether reported pIC50 for `C[C@@]1(C=O)[C@H](O)CC[C@@]2(C)[C@H](/C=C/c3ccc(-c4cccc(F)c4)cn3)[C@@H](C3SCCS3)CC[C@H]12` sits at 5 or higher.
NO

Please check the record `C[C@]1(CO)[C@H]2CC[C@](C)(O)[C@@H](/C=C/c3ccc(-c4cccc(F)c4)cn3)[C@]2(C)CC[C@H]1O` and state if its pIC50 is at or above 5.
NO

Decide: is the reported value of pIC50 for `C[C@]1(/C=C/c2ccc(-c3cccc(F)c3)cn2)[C@H]2CC[C@@H]3COC(=O)[C@H]3[C@]2(C)CC[C@H]1OC(N)=O` equal to or greater than 5?
NO

// inclusive: pIC50 at least 5? input: `COC(=O)[C@]1(C)[C@H](O)CC[C@@]2(C)[C@H](/C=C/c3ccc(-c4cccc(F)c4)cn3)[C@@]3(CC[C@@H]21)CO3`
YES

###

assay.explanation: MRT (0 to infinity) in Wistar rat at 1 mg/kg, iv administered as bolus dose measured up to 24 hrs post dose by HPLC-MS/MS analysis
Assay type: ADME, organism-based
reported.conditions: in vivo
test.readout: MRT inf (h)
# number only, unit h dropped from output

// fetch MRT inf given entry CC1CC[C@@H]2C(C)(C)[C@H](O)CC[C@@]2(C)[C@@H]1/C=C/c1ccc(-c2cccc(F)c2)cn1 (single isomer, unassigned)
2

###

Below is a list of entries, each paired with its recorded pIC50 value.
system.name: Proteinase-activated receptor 1 (Homo sapiens, UniProt P25116)
Sequence (P25116 whole entry): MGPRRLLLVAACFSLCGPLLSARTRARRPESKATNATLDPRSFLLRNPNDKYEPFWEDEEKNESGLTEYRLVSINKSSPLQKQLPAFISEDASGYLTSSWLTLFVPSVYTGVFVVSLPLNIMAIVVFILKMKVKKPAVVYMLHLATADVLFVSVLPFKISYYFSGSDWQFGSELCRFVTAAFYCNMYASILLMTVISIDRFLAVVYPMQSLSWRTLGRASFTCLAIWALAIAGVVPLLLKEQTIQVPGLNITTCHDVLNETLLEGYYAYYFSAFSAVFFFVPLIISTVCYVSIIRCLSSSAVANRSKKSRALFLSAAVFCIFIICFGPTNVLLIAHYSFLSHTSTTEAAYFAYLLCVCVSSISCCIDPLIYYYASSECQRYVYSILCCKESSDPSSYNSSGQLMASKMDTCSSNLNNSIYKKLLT
assay.explanation: Antagonist activity at human PAR1 expressed in HEK293 cells co-expressing Galpha15 assessed as inhibition of haTRAP-induced calcium mobilization preincubated for 15 mins followed by haTRAP addition by calcium-4 dye based FLIPR assay
Scale explanation: pIC50 corresponds to minus log10 of a concentration expressed in moles per litre.

>>> print(df.to_string())
                                   molecule  assay_result
0  C[C@@]1(C=O)[C@H](O)CC[C@@]2(C)[C@H](/C=C/c3ccc(-c4cccc(F)c4)cn3)[C@@]3(CC[C@H]12)CO3          5.52
1  CC1CC[C@@H]2C(C)(C)[C@H](O)CC[C@@]2(C)[C@@H]1/C=C/c1ccc(-c2cccc(F)c2)cn1 (single isomer, unassigned)          5.96
2  COC(=O)[C@]1(C)[C@H](OC(N)=O)CC[C@@]2(C)[C@H](/C=C/c3ccc(-c4cccc(F)c4)cn3)[C@@]3(CC[C@@H]21)CO3          5.06
3  C[C@]1(CO)[C@H]2CC[C@@]3(CO3)[C@@H](CCc3ccc(-c4cccc(C(F)(F)F)c4)cn3)[C@]2(C)CC[C@H]1O          5.00
4  CNC[C@@]1(C)[C@H]2CC[C@@]3(CO3)[C@@H](/C=C/c3ccc(-c4cccc(F)c4)cn3)[C@]2(C)CC[C@H]1O          4.77
5  CC1CC[C@@H]2C(C)(C)[C@H](OS(C)(=O)=O)CC[C@@]2(C)[C@@H]1/C=C/c1ccc(-c2cccc(F)c2)cn1 (single isomer, unassigned)          4.06

Output measured pIC50 for this item: `C[C@]1(CO)[C@H]2CC[C@@]3(CO3)[C@@H](/C=C/c3ccc(-c4cccc(F)c4)cn3)[C@]2(C)CC[C@H]1O`
5.04

Please indicate pIC50 recorded for `C[C@]1(CO)[C@H]2CC[C@@]3(CO3)[C@@H](CCc3ccc(-c4cccc(F)c4)cn3)[C@]2(C)CC[C@H]1O`
4.85

State its pIC50: `C[C@@]12CC[C@@H](O)[C@@](C)(C(=O)O)[C@H]1CC[C@@]1(CO1)[C@H]2/C=C/c1ccc(-c2cccc(F)c2)cn1`
4.54

Give pIC50 for the following molecule: CC1CC[C@@H]2[C@](C)(C=O)[C@H](O)CC[C@@]2(C)[C@@H]1/C=C/c1ccc(-c2cccc(F)c2)cn1 (single isomer, unassigned)
5.82

###

Parameter: inhibition at 5 min. Scope: all listed entries.
Tested on: ADP-stimulated platelet aggregation
assay.explanation: Toxicity in guinea pig assessed as inhibition of ADP-stimulated platelet aggregation at 10 mg/kg, po pretreated for 2 hrs followed by ADP stimulation measured after 5 mins
Assay type: organism-based, Cavia porcellus
reported.conditions: in vivo
Answer in %, number only, no unit symbol.

                                   molecule  assay_result
0  CC1CC[C@@H]2C(C)(C)[C@H](O)CC[C@@]2(C)[C@@H]1/C=C/c1ccc(-c2cccc(F)c2)cn1 (single isomer, unassigned)           6.7

Moving on to the next molecule.
Supply recorded inhibition at 5 min for `CCOC(=O)N[C@@H]1CC[C@@H]2[C@@H](C1)C[C@H]1C(=O)O[C@H](C)[C@H]1[C@H]2/C=C/c1ccc(-c2cccc(F)c2)cn1` here.
3
